Measured values drawn from PubChem BioAssay (EPA / NIEHS) for this set.

read-out: Early growth response protein 1 (EGR1) transcription factor, EGR1 (gene 1958); test: LTEA_HepaRG_EGR1: Life Technologies and Expression Analysis (LTEA) Assay for Early growth response protein 1 (EGR1) transcription factor using HepaRG (AID 2283490); conditions: mRNA level, 48 h; actives raise or lower the signal
Active and inactive are the calls of the source. Rule for the calls: active = hit-call score of the fitted dose curve at least 0.9, where 1 is the maximum; inactive = score below 0.9.
Outcomes: active, inactive

Compound | Category Label
Oc1c(Cl)c(Cl)c(Cl)c(Cl)c1Cl | active
CO/C=C(/C(=O)OC)c1ccccc1COc1cccc(C(F)(F)F)n1 | inactive
ClC1=C(Cl)[C@]2(Cl)[C@@H]3[C@H]4C[C@H]([C@@H]5O[C@H]45)[C@@H]3[C@@]1(Cl)C2(Cl)Cl | inactive
CCCCCCCCCC[N+](C)(C)CCCCCCCCCC | active
CC(C)C(=O)OCC(C)(C)C(OC(=O)C(C)C)C(C)C (stereo not drawn) | inactive
c1cc2ccc3cccc4ccc(c1)c2c34 | inactive
C[C@]12CCC(=O)C=C1CC[C@@H]1[C@@H]2CC[C@]2(C)C(=O)CC[C@@H]12 | inactive
Cc1ccccc1CO[C@@H]1C[C@@]2(C(C)C)CC[C@]1(C)O2 | inactive
Cc1cc(-c2ccc(N)c(C)c2)ccc1N | inactive
CCOCCOC(C)=O | inactive
CC(c1ccc(O)cc1)(c1ccc(O)cc1)c1ccc(O)cc1 | active
COS(=O)(=O)OC | inactive
CCOP(=S)(OCC)SCSC(C)(C)C | inactive

###

assay: BSK_LPS_PGE2: BioMAP Diversity Plus: LPS Assay for Prostaglandin E2 (PGE2) Biomarker Activity (AID 2283082); conditions: primary human HUVEC with PBMC; actives raise or lower the signal
The source made the active and inactive calls. How the source made its calls: active means hit-call score of the fitted dose curve at least 0.9, where 1 is the maximum; inactive means score below 0.9.
Labels: TRUE = active, FALSE = inactive

Compound | Category Label
ClC1=C(Cl)[C@]2(Cl)[C@@H]3[C@H]4C[C@H]([C@@H]5O[C@H]45)[C@@H]3[C@@]1(Cl)C2(Cl)Cl | FALSE
C=CC(=O)NCNC(=O)C=C | FALSE
C1CC2OC2CC1C1CO1 (stereo not given) | FALSE
Nn1cnnc1 | FALSE
ClC(Cl)=C(c1ccc(Cl)cc1)c1ccc(Cl)cc1 | TRUE
CCC(C)(c1ccc(O)cc1)c1ccc(O)cc1 | TRUE
CC(C)C(=O)OCC(C)(C)C(OC(=O)C(C)C)C(C)C (stereo not given) | FALSE
CCOP(=S)(OCC)SCSC(C)(C)C | FALSE
O=S(=O)(O)C(F)(F)C(F)(F)C(F)(F)C(F)(F)C(F)(F)C(F)(F)F | FALSE
CCC(=O)O[C@H]1CC[C@H]2[C@@H]3CCC4=CC(=O)CC[C@]4(C)[C@H]3CC[C@]12C | FALSE
CCOC(=O)C(O)(c1ccc(Cl)cc1)c1ccc(Cl)cc1 | FALSE
Cc1ccccc1CO[C@@H]1C[C@@]2(C(C)C)CC[C@]1(C)O2 | FALSE
CC(C)(c1ccccc1)c1ccc(O)cc1 | TRUE
CC(C)(O)C(=O)Nc1ccc([N+](=O)[O-])c(C(F)(F)F)c1 | TRUE
Cc1cccc(C)c1N | FALSE
O=C(NC(=O)c1c(F)cccc1F)Nc1cc(Cl)c(OC(F)(F)C(F)F)c(Cl)c1 | FALSE
C=CC(N)=O | FALSE
Oc1ccc(C(c2ccc(O)cc2)(C(F)(F)F)C(F)(F)F)cc1 | TRUE
ClC1=C(Cl)[C@]2(Cl)[C@@H]3[C@@H](Cl)[C@H]4O[C@H]4[C@@H]3C1(Cl)C2(Cl)Cl | FALSE
Nc1ccc(-c2ccc(N)cc2)cc1 | TRUE
C[C@]12CCC(=O)C=C1CC[C@@H]1[C@@H]2CC[C@]2(C)C(=O)CC[C@@H]12 | FALSE
CCCN(CCC)N=O | FALSE
Cc1ccccc1[N+](=O)[O-] | FALSE
Clc1ccc(Cl)cc1 | FALSE
CCC(C)(CC)c1cc(NC(=O)c2c(OC)cccc2OC)on1 | FALSE

###

assay: CCTE_Mundy_HCI_Cortical_Synap_Neur_Matur_NeuriteSpotCountPerNeuriteLength: CCTE's Synaptogenesis and Neurite Maturation Assay in rat cortical cells for Neurite Spot Count per Neurite Length, Mundy Lab (AID 2284210)
The source made the active and inactive calls. The calls were made as follows: active = hit-call score of the fitted dose curve at least 0.9, where 1 is the maximum; inactive = score below 0.9.
Classes used: active, inactive

Smiles Data | Category Label
ClC1=C(Cl)[C@]2(Cl)[C@@H]3[C@@H](Cl)[C@H]4O[C@H]4[C@@H]3C1(Cl)C2(Cl)Cl | inactive
C=CC(N)=O | inactive
ClC1=C(Cl)[C@]2(Cl)[C@@H]3[C@@H]4C[C@@H]([C@H]5O[C@@H]45)[C@@H]3[C@@]1(Cl)C2(Cl)Cl | active
COc1ccc(O)c(C(C)(C)C)c1 | inactive
CO/C=C(/C(=O)OC)c1ccccc1COc1cccc(C(F)(F)F)n1 | active

###

assay: CCTE_Shafer_MEA_dev_mutual_information_norm: CCTE's Neural Network Formation Assay for Mutual Information Normalization, Shafer Lab (AID 2284091)
Active and inactive are the calls of the source. How the source made its calls: active means hit-call score of the fitted dose curve at least 0.9, where 1 is the maximum; inactive means score below 0.9.
Outcome codes: true (1) (active), false (0) (inactive)

Smiles Data | Category Label
COc1ccc(O)c(C(C)(C)C)c1 | false (0)
c1cc2ccc3cccc4ccc(c1)c2c34 | false (0)
NS(=O)(=O)C(F)(F)C(F)(F)C(F)(F)C(F)(F)C(F)(F)C(F)(F)C(F)(F)C(F)(F)F | false (0)
ClC1=C(Cl)[C@]2(Cl)[C@@H]3[C@@H]4C[C@@H]([C@H]5O[C@@H]45)[C@@H]3[C@@]1(Cl)C2(Cl)Cl | true (1)
O=S(=O)(O)C(F)(F)C(F)(F)C(F)(F)C(F)(F)F | false (0)
Oc1ccc(C(c2ccc(O)cc2)(C(F)(F)F)C(F)(F)F)cc1 | false (0)

###

test: CEETOX_H295R_ANDR: CeeTox H295R High-throughput Steroidogenesis Assay for Androstenedione (ANDR) (AID 2283436); settings: actives raise or lower the signal;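 note: human H295R adrenal cells exposed for 48 h with androstenedione measured in medium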
Calls of active or inactive are those of the source. How the source made its calls: active means hit-call score of the fitted dose curve at least 0.9, where 1 is the maximum; inactive means score below 0.9.
Classes used: active, inactive

Smiles Data | Category Label
CCC(=O)O[C@H]1CC[C@H]2[C@@H]3CCC4=CC(=O)CC[C@]4(C)[C@H]3CC[C@]12C | active
O=C(NC(=O)c1c(F)cccc1F)Nc1cc(Cl)c(OC(F)(F)C(F)F)c(Cl)c1 | inactive
CCNc1nc(NC(C)C)nc(SC)n1 | inactive
c1cc2ccc3cccc4ccc(c1)c2c34 | active

###

assay: BSK_3C_Vis: BioMAP Diversity Plus: 3C Assay for Morphology Visualization (AID 2283025); conditions: primary human endothelial cells (HUVEC);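 note: fitted both ways so gain or loss versus DMSO counts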
The source made the active and inactive calls. The calls were made as follows: active = hit-call score of the fitted dose curve at least 0.9, where 1 is the maximum; inactive = score below 0.9.
Possible outcomes: active, inactive

Compound | Category Label
COS(=O)(=O)OC | inactive
NS(=O)(=O)C(F)(F)C(F)(F)C(F)(F)C(F)(F)C(F)(F)C(F)(F)C(F)(F)C(F)(F)F | active
O=C(O)C(F)(F)C(F)(F)C(F)(F)C(F)(F)C(F)(F)C(F)(F)C(F)(F)C(F)(F)F | inactive
CC(c1ccc(O)cc1)(c1ccc(O)cc1)c1ccc(O)cc1 | active
CCNc1nc(NC(C)C)nc(SC)n1 | inactive
CCCCCCCCCC[N+](C)(C)CCCCCCCCCC | active
O=S(=O)(O)C(F)(F)C(F)(F)C(F)(F)C(F)(F)C(F)(F)C(F)(F)F | inactive
O=C(N[C@H]1CN2CCC1CC2)c1cc2ccoc2cn1 | inactive
CCSC(=O)N(CC)C1CCCCC1 | inactive
Cc1cc(-c2ccc(N)c(C)c2)ccc1N | inactive
Oc1ccc(Cl)cc1Cl | inactive
Cc1ccc(O)c(C)c1 | inactive
O=C(O)C(F)(F)C(F)(F)C(F)(F)C(F)(F)C(F)(F)F | inactive
C=CC(=O)NCNC(=O)C=C | inactive
Cc1cc(O)ccc1Cl | inactive
CCC(C)(CC)c1cc(NC(=O)c2c(OC)cccc2OC)on1 | inactive
C1CC2OC2CC1C1CO1 (stereo unspecified) | inactive
ClC1=C(Cl)[C@]2(Cl)[C@@H]3[C@H]4C[C@H]([C@@H]5O[C@H]45)[C@@H]3[C@@]1(Cl)C2(Cl)Cl | inactive
C[C@]12CCC(=O)C=C1CC[C@@H]1[C@@H]2CC[C@]2(C)C(=O)CC[C@@H]12 | inactive
CCCCCCCCOC(=O)c1ccccc1C(=O)OCCCCCCCC | inactive
c1cc2ccc3cccc4ccc(c1)c2c34 | inactive
O=C(NC(=O)c1cc(F)c(F)cc1Cl)Nc1cc(F)ccc1N1CCC(C(=O)O)CC1 | inactive
O=C(NC(=O)c1c(F)cccc1F)Nc1cc(Cl)c(OC(F)(F)C(F)F)c(Cl)c1 | active
O=NN(c1ccccc1)c1ccccc1 | inactive
Cc1ccccc1CO[C@@H]1C[C@@]2(C(C)C)CC[C@]1(C)O2 | inactive
CCOCCOC(C)=O | inactive

###

System: Sodium/Iodide Symporter (NIS), SLC5A5 (gene 6528)
Test: CPHEA_Stoker_NIS_Inhibition_RAIU: CPHEA's Radioactive Iodide Uptake (RAIU) Assay for Sodium/Iodide Symporter (NIS) Inhibition, Stoker and Laws Labs (AID 2283841)
Protocol: CPHEA_Stoker_NIS is a cell-based, single-readout assay that uses hNIS-HEK293T-EPA, a novel human kidney cell line expressing human NIS, with measurements taken at 2 hours after chemical dosing in a 96-well plate. […] A parallel cytoxicity assay (Cell Titer Glo, Promega) was also run in the same cell line.CPHEA_Stoker_NIS_Inhibition_RAIU is one of 2 assay components measured from the CPHEA_Stoker_NIS assay. […]
Results filed as inconclusive are left out. Calls of active or inactive are those of the source. How the source made its calls: active means hit-call score of the fitted dose curve at least 0.9, where 1 is the maximum; inconclusive means response in the unintended direction; inactive means score below 0.9.

Smiles Data | Subject Of Test | outcome
Cc1cccc(C)c1N | Sodium/Iodide Symporter (NIS), SLC5A5 (gene 6528) | inactive
Oc1ccc(C(c2ccc(O)cc2)(C(F)(F)F)C(F)(F)F)cc1 | Sodium/Iodide Symporter (NIS), SLC5A5 (gene 6528) | inactive
CCCCCCCCCC[N+](C)(C)CCCCCCCCCC | Sodium/Iodide Symporter (NIS), SLC5A5 (gene 6528) | inactive
CC#Cc1cc(C)nc(Nc2ccccc2)n1 | Sodium/Iodide Symporter (NIS), SLC5A5 (gene 6528) | inactive
O=C(O)C(F)(F)C(F)(F)C(F)(F)C(F)(F)C(F)(F)F | Sodium/Iodide Symporter (NIS), SLC5A5 (gene 6528) | inactive
CCSC(=O)N(CC)C1CCCCC1 | Sodium/Iodide Symporter (NIS), SLC5A5 (gene 6528) | inactive
CC(C)(c1ccccc1)c1ccc(O)cc1 | Sodium/Iodide Symporter (NIS), SLC5A5 (gene 6528) | inactive
